- testedOn: NAD-dependent histone deacetylase SIR2 (Saccharomyces cerevisiae S288c)
- procedureText: Inhibition of Ura3 gene expressing yeast NAD-dependent HDAC activity of Sir2 assessed as growth inhibition at 50 uM after 24 to 48 hrs by reporter silencing assay in presence of 5-fluoro orotic acid
measuredProperty: inhibition (%)

Some compounds with known inhibition results, for comparison:
CC(C)(C)c1cc2cccnc2n1S(=O)(=O)c1ccccc1 :: 42
CCCCCc1cc2cccnc2n1S(=O)(=O)c1ccccc1 :: 10
CS(=O)(=O)n1c(-c2ccccc2)cc2cccnc21 :: 40
O=S(=O)(c1ccccc1)n1c(-c2ccccc2)cc2cccnc21 :: 37
O=S(=O)(c1ccccc1)n1c(CCCCl)cc2cccnc21 :: 12

(P) CC(O)c1cc2cccnc2n1S(=O)(=O)c1ccccc1 (stereo not drawn)
(Q) N#CCCCc1cc2cccnc2n1S(=O)(=O)c1ccccc1
(R) O=S(=O)(c1ccccc1)n1c(CCO)cc2cccnc21
In: Put these in order: smallest inhibition first, largest last. A ranking is expressed here by listing the labels in the requested order.
Out: Q, R, P
